system: T1, Activin B (UniProt P09529 293-407)
T1 sequence (looked up): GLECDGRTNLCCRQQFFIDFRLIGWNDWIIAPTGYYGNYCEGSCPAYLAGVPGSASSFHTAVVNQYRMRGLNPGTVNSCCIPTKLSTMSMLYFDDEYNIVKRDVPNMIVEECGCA
measurement_description: cell-based or functional assay
measurement_name: Activin B-ActRIIB SMAD IC50 pM

Recorded results for 3 binders are shown here.
* anti-Activin A antibody Clone H (IgG) (antibody, V domains shown, IgG format; also called Antibody H) VH: QVQLVQSGAEVKKPGASVKVSCKASGYTFTGYHIHWVRQAPGQGLEWMGHISAYSGTTNYAQKLQGRVTMTTDTSTSTAYMELRSLRSDDTAVYYCARARDIAAAGLGAFDYWGQGTLVTVSS VL: EIVLTQSPGTLSLSPGERATLSCRASQSVRSSYLAWYQQKPGQAPRLLIYGASSRATGIPDRFSGSGSGTDFTLTISRLEPEDFAVYYCQQYSNYPRTFGGGTKVEIKR | > 100000 pM
* anti-Activin A antibody Clone A (IgG) (antibody, V domains shown, IgG format; also called Antibody A) VH: QVQLVQSGAEVKKPGASVKVSCKASGYTFTGYYMHWVRQAPGQGLEWMGSINPSSGGTNYAQKFQGRVTMTTDTSTSTAYMELRSLRSDDTAVYYCARARDIAAAGLGAFDYWGQGTLVTVSS VL: EIVLTQSPGTLSLSPGERATLSCRASQSVRSSYLAWYQQKPGQAPRLLIYGASSRATGIPDRFSGSGSGTDFTLTISRLEPEDFAVYYCQQYVSYPRTFGGGTKVEIKR | > 100000 pM
* anti-Activin A antibody Clone E (IgG) (antibody, V domains shown, IgG format; also called Antibody E) VH: QVQLVQSGAEVKKPGASVKVSCKASGYTFHGYNMHWVRQAPGQGLEWMGSINPYSGYTIYAQKFQGRVTMTRDTSISTAYMELSRLRSDDTAVYYCARARDIAAAGLGAFDYWGQGTLVTVSS VL: EIVLTQSPGTLSLSPGERATLSCRASQSVRSSYLAWYQQKPGQAPRLLIYGASSRATGIPDRFSGSGSGTDFTLTISRLEPEDFAVYYCQQYVSYPRTFGGGTKVEIKR | 83600 pM

Q: What measured Activin B-ActRIIB SMAD IC50 pM goes with anti-Activin A antibody Clone L (IgG) (antibody, V domains shown, IgG format; also called Antibody L) VH: QVQLQESGPGLVKPSETLSLTCAVSGYSISSGYYWGWIRQPPGKGLEWIGSIYHSGSTYYNPSLKSRVTISVDTSKNQFSLKLSSVTAADTAVYYCAREAGSGYWYLSVYGMDVWGQGTTVTVSS VL: EIVLTQSPATLSVSPGERATLSCRASQSVSSNLAWYQQKPGQAPRLLIYGASTRATGIPARFSGSGSGTEFTLTISSLQSEDFAVYYCQQSDDWPWTFGGGTKVEIKR ?
A: > 100000 pM
